CSF-1R (Fms, active) (Homo sapiens) measurements of IC50, listed per entry.
Sequence (P07333 20-972): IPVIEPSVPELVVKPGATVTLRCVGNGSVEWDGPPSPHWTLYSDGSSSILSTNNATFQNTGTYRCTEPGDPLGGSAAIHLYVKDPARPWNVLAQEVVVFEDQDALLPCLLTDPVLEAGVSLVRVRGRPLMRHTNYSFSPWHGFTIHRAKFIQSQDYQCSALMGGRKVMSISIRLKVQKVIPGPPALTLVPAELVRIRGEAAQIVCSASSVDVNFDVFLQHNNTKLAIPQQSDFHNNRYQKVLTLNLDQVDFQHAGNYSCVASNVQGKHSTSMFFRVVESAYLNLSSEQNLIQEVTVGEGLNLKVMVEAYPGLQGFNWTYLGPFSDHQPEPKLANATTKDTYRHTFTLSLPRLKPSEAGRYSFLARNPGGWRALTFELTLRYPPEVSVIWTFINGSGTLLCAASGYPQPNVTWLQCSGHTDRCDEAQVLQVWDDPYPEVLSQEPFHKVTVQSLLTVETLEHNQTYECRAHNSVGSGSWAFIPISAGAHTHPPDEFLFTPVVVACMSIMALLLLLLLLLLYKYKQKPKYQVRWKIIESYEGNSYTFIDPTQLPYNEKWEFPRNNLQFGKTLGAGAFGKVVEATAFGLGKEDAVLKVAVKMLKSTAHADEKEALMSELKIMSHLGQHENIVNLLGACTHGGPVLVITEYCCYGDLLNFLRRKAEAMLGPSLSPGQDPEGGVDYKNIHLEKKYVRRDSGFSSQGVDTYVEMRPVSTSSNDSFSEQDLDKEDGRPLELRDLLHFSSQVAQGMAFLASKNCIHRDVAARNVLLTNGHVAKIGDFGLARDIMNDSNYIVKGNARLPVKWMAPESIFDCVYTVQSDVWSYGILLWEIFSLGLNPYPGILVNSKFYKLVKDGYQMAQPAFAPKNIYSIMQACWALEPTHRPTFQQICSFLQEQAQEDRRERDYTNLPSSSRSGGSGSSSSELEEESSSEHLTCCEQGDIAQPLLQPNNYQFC

| SMILES REPRESENTATION | IC50 |
| --- | --- |
| COc1ccc(-c2[nH]c3ncc(C#CCCO)cc3c2CN2C3CCC2COC3)cc1 | 10 to 30 nM |
| COc1ccc(-c2[nH]c3ncc(C#CCCO)cc3c2CN2CCOCC2)cc1 | 30 to 100 nM |
| OCCC#Cc1cnc2[nH]c(-c3ccc(N4CCOCC4)cc3)c(CN3CCOCC3)c2c1 | < 10 nM |
| COc1cc(-c2[nH]c3ncc(C#CCCO)cc3c2CN2C3CCC2COC3)ccc1OC1COC1 | 10 to 30 nM |
| CC(=O)N1CC=C(c2[nH]c3ncc(C#CCCO)cc3c2CC2CCOCC2)CC1 | < 10 nM |

Here is another compound to look at.
What IC50 value was documented for this compound, `OCCC#Cc1cnc2[nH]c(-c3ccc(N4CCC(O)CC4)cc3)c(CN3CCOCC3)c2c1` ?
< 10 nM
